# Tested System: Bcl-2-like protein 10 (Homo sapiens) (UniProt Q9HD36)
# Sequence (Q9HD36 whole entry, looked up): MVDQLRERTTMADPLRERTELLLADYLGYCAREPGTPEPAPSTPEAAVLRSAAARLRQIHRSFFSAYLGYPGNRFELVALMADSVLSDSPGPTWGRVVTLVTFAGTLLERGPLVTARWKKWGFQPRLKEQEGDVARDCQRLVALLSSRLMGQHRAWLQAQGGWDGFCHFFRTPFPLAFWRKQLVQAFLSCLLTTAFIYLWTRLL
# Assay Details: inhibitors of Bim-Bcl-B binding, primary screen, biochemical, multiplexed, human Bcl-2 family (AID 951);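 further: 0% = tracer peptide without compound and 100% = reference inhibitor peptide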
# Condition Context: bead-based flow cytometry, Bim peptide-Bcl-B binding; at 10 µM; stronger effect = higher value
In all, about 190,000 compounds went through this assay and about 140 (0.074%) were called active. For the sample, actives were picked, then their nearest neighbours and some compounds at random.
Observable: inhibition (%)
Write down the numeric answer in % and omit the unit.

The measured inhibition that Cc1ccc(S(=O)(=O)NNC(=O)Nc2cccc3ccccc23)cc1 showed for Bcl-2-like protein 10 (Homo sapiens) (UniProt Q9HD36) is 0

The measured inhibition that CN(Cc1ccccn1)Cc1nc(-c2ccc(Cl)cc2)no1 showed for Bcl-2-like protein 10 (Homo sapiens) (UniProt Q9HD36) is -6
